Each recorded value in this set is attributed to patent US8586611B2.

# Tested on: Pseudoperonospora cubensis
# test description: Test A: cucumber downy mildew, spray the day before inoculation (disease rating, 100 = 100% disease control)
# Format: in vivo
# condition info: spray the day before inoculation, compounds without asterisk (not 40 or 10 ppm)
# Description: The test compounds were first dissolved in acetone in an amount equal to 3% of the final volume and then suspended at the desired concentration (in ppm) in acetone and purified water (50/50 mix by volume) containing 250 ppm of the surfactant Trem® 014 (polyhydric alcohol esters). The resulting test suspensions were then used in tests A-E. Spraying a 200 ppm test suspension to the point of run-off on the test plants was the equivalent of a rate of 500 g/ha. […]
reported property: Test A disease rating (100 = 100% disease control, 0 = no disease control) (%)
Give just the numeric value; % need not be written.

Req: Which Test A disease rating (100 = 100% disease control, 0 = no disease control) is reported for this molecule? C[C@H](c1ccccc1)N(C)C(=O)c1csc(C2CCN(C(=O)Nc3cccc(C(F)(F)F)c3)CC2)n1 [compound 156]
Resp: 100

Req: // query Test A disease rating (100 = 100% disease control, 0 = no disease control) value for entry Cc1ccccc1CC(=O)N1CCC(c2nc(C(=O)N(C)[C@H](C)c3ccccc3)cs2)CC1 [Compound 11]
Resp: 0

Req: Look up Test A disease rating (100 = 100% disease control, 0 = no disease control) for this molecule: C[C@H](c1ccccc1)N(C)C(=O)c1csc(C2CCN(C(=O)Cc3cc(F)cc(F)c3)CC2)n1 [compound 37]
Resp: 85

Req: Data request, read-out Test A disease rating (100 = 100% disease control, 0 = no disease control), for C[C@H](c1ccccc1)N(C)C(=O)c1csc(C2CCN(C(=O)Cc3ccc(F)c(C(F)(F)F)c3)CC2)n1 [compound 34]
Resp: 85

Req: Data request, read-out Test A disease rating (100 = 100% disease control, 0 = no disease control), for CN(Cc1ccccc1)C(=O)c1csc(C2CCN(C(=O)Cc3ccccc3Cl)CC2)n1 [compound 161]
Resp: 0

Req: I have this molecule here, C[C@H](c1ccccc1)N(C)C(=O)c1csc(C2CCN(C(=O)Cc3ccc(F)c(Cl)c3)CC2)n1 [compound 35] , and I need its recorded Test A disease rating (100 = 100% disease control, 0 = no disease control).
Resp: 88

Req: Fill in the blank: the reported Test A disease rating (100 = 100% disease control, 0 = no disease control) of Cc1cc(C(F)(F)F)nn1CC(=O)N1CCC(c2nc(C(=O)N(C)C3c4ccccc4CCC3(C)C)cs2)CC1 (centres unmarked) [Compound 236] is ____.
Resp: 97

Req: Recorded Test A disease rating (100 = 100% disease control, 0 = no disease control) for C[C@H](c1ccccc1)N(C)C(=O)c1csc(C2CCN(C(=O)Cc3ccc(Cl)cc3Cl)CC2)n1 [compound 6] , please?
Resp: 0

Req: Form field: reported Test A disease rating (100 = 100% disease control, 0 = no disease control) of C[C@H](c1ccccc1)N(C)C(=O)c1csc(C2CCN(C(=O)Cc3cccc(S(C)(=O)=O)c3)CC2)n1 [compound 31]
Resp: 0

Req: Form field: reported Test A disease rating (100 = 100% disease control, 0 = no disease control) of C[C@H](c1ccccc1)N(C)C(=O)c1csc(C2CCN(C(=O)Cc3cccc(C(F)(F)F)c3F)CC2)n1 [compound 42]
Resp: 99

Req: Name the recorded Test A disease rating (100 = 100% disease control, 0 = no disease control) for CN(CCc1ccccc1)C(=O)c1csc(C2CCN(C(=O)Cc3ccccc3Cl)CC2)n1 [compound 162] .
Resp: 0
